Attribution: the nanobody polyreactivity screen of Harvey et al. (2022)

Experiment: yeast display, Sf9 membrane polyspecificity reagent, FACS + sequencing; frameworks hold sequencing errors
READOUT LABEL: polyreactivity (PSR sort gate)

Worked examples, 8 sequences total:
• QVQLVESGGGLVQAGGSLRLSCAASGRTFGRYAKGWYRQAPGKERELVAAISWSGGSTYYADSVKGRFTISRDNAKNTVYLQMNSLKPEDTAVYYCAAVTTDGVYAFDYWGQGTQVTVSS = low polyreactivity
• QVQLVESGGGLVQAGGSLRLSCAASGSTIAYYAMGWDRQAPGKERELVAVINGITGSTYYADSVKGRFTISRDNEKNTVYLQMNSLKPEDTAVYYCNADYADVTDEGDYWGQGTQVTVSS = low polyreactivity
• QVQLVESGGGLVQAGGSLRLSCAASGRIFFVNTMGWYRQAPGNERELVATLSWSGGSTYYADSVKGRFTISRDNAKNTVYLQMNSLKPEDTAVYYCAAVGYTTYRRYDYWGQGTQVTVSS = low polyreactivity
• QVQLVESGGVLVQAGGSLRLSCAASGFTFTPNAMGWYTQAPGKERELVAAIDWNGGSTYYADAVKGRFTISRDNAKNTVYLQMNSLKPEDTAVYYCAADDEEWKVITDYDYWGQGTQVTVSS = low polyreactivity
• QVQLVESGGGLVQAGGSLRLSCAASGNIFHYYPMGWYRQAPGKERELVATISWRGDGTNYADSVKGRFTISRDNEKNTVYLQMISLKPEDTAVYYCAARGVWPDYDYWGQGTQVTVSS = low polyreactivity
• QVQLVESGGGLVQAGGSLRLSCAASGFIFVPNAMGWYRQAPGKERELVAAIRWSDGTTYYADSVKGRFTISRDNAKNTVYLQMNSLKPEDTAVYYCATDHDPRYDYWGQGTQVTVSS = high polyreactivity
• QVQLVESGGGLVQAGGSLRLSCAASGFIFWTYAMGWYRQAPGKERELVAAITWSGTSTYYADSVKGRFTISRDNAKNTVYLQMNSLKPEDTAVYYCNALYYSRRVDYWGQGTQVTVSS = high polyreactivity
• QVQLVESGGGLVQAGGSLRLSCAASGSTFGLYAMGWYSQAPGKEREMVAVISWRGGSTIYADSVKGRFTISRDNAKITVYLEMNSLKPEDTAVYYCNAKQSYYYPWRGYNYWGQGTQVTVSS = high polyreactivity

stdin: Give recorded polyreactivity (PSR sort gate). `QVQLVESGGGLVKAGGSLLLSCAASGIIFRRNAMGRNIQAPGKERELVAAISSSKGRTYYADSVKGRFTISRDNAKNTVYLQMNSLKPEDTAVYYCTADYDASARGWGQIAYVYWGQGTQVTVSS`
stdout: low polyreactivity

stdin: Give recorded polyreactivity (PSR sort gate). `QVQLVESGGGLVQAGGSLRLSCAASGRTFDPYAMGWYIQAPGKERELVAAITSGDDTYYADSVKGRFTISRDNAKNTVYLQMNSLKPEDTAVYYCAADSFTPDYYSHDYWGQGTQVTVSS`
stdout: low polyreactivity

stdin: Give recorded polyreactivity (PSR sort gate). `QVQLVESGGGLVQAGGSLRLSCAASASIFYRYAMGWFRQAPGKERELVAAISWRVTSTYYADSVKGRFTISRDNSKNTVYLQMNSLKPEDTAVYYCATAGTYTGGEGYWGQGTQVTVSS`
stdout: high polyreactivity
